# MEASUREMENT PROTOCOL: Solubility in buffer solution in pH=2&5
# Assay type: physicochemical
# RECORDED CONDITIONS: citrate-NaOH buffer, 20 °C, pH 5, aqueous buffer, thermodynamic from solid, citrate-NaOH buffer (pH 5); read-out: solubility pH 5
ENDPOINT NAME: solubility at 30 min (µg/mL)
Answer with a number only, understood to be in µg/mL.

Look up solubility at 30 min: CCOc1ccc(S(=O)(=O)NCc2ccncc2)cc1-c1nc2c(CC(C)C)nn(C)c2c(=O)[nH]1
0.4

Look up solubility at 30 min: CCCOc1ccc(S(=O)(=O)NCc2ccncc2)cc1-c1nc2c(CCC)nn(C)c2c(=O)[nH]1
1

Look up solubility at 30 min: CCOc1ccc(S(=O)(=O)NCc2ccccn2)cc1-c1nc2c(CC(C)C)nn(C)c2c(=O)[nH]1
1

Look up solubility at 30 min: CCCOc1ccc(S(=O)(=O)Nc2ccncc2)cc1-c1nc2c(CCC)nn(C)c2c(=O)[nH]1
1

Look up solubility at 30 min: CCOc1ccc(S(=O)(=O)NCc2cccnc2)cc1-c1nc2c(CC(C)C)nn(C)c2c(=O)[nH]1
0.3

Look up solubility at 30 min: CCCc1nn(C)c2c(=O)[nH]c(-c3cc(S(=O)(=O)N4CCN(C)CC4)ccc3OCC)nc12 [sildenafil, reference compound]
480

Look up solubility at 30 min: CCOc1ccc(S(=O)(=O)Nc2ccncc2)cc1-c1nc2c(CC(C)C)nn(C)c2c(=O)[nH]1
7

Look up solubility at 30 min: CCOc1ccc(S(=O)(=O)NCCC2CCCN2C)cc1-c1nc2c(CC(C)C)nn(C)c2c(=O)[nH]1 (stereo not drawn)
708
